# System: MCF7
# ASSAY NAME: Cytotoxicity against human MCF7 cells after 2 days by sulforhodamine B assay
# Assay type: functional
# CONDITION CONTEXT: MCF7, 48 h, read-out: ED50 (the source's name)
Assign EC50 to each entry below.

Can you share its EC50? I mean this compound: "CCCCCC(=O)O[C@@H]1C[C@]2(C)C(=CC[C@H]2[C@@H]2C[C@@H]([C@@H]3OC3(C)C)O[C@@H]2OC(C)=O)[C@]2(C)[C@H](O)C[C@H]3C(C)(C)C(=O)C=C[C@]3(C)[C@@H]12"
> 10 µM

Need EC50 of "C/C=C(\C)C(=O)O[C@@H]1C[C@]2(C)C(=CC[C@H]2[C@@H]2C[C@@H]([C@@H]3OC3(C)C)O[C@H]2OC)[C@]2(C)[C@H](OC(C)=O)C[C@H]3C(C)(C)C(=O)C[C@H](O)[C@]3(C)[C@@H]12" , thanks.
> 10 µM

Reported EC50 for "C/C=C(\C)C(=O)O[C@@H]1C[C@]2(C)C(=CC[C@H]2[C@@H]2C[C@@H]([C@@H]3OC3(C)C)O[C@@H]2OC(C)=O)[C@@]2(C)[C@H]1[C@@]1(C)C=CC(=O)C(C)(C)[C@@H]1C[C@H]2OC(C)=O" : what is it?
> 10 µM

// query EC50 value for entry "C/C=C(\C)C(=O)O[C@@H]1C[C@@]2(C)[C@H]([C@@H]3C[C@@H]([C@@H]4OC4(C)C)O[C@@H]3OC(C)=O)CC[C@]2(C)[C@@H]2CC=C3C(C)(C)C(=O)C[C@H](O)[C@]3(C)[C@H]21"
> 10 µM

For "CC[C@@]1(O)C(=O)OCc2c1cc1n(c2=O)Cc2cc3ccccc3nc2-1" , what is its reported EC50?
> 10 µM

// lookup EC50 for "CCCCCC(=O)O[C@@H]1C[C@]2(C)C(=CC[C@H]2[C@@H]2C[C@@H]([C@@H]3OC3(C)C)O[C@@H]2OC(C)=O)[C@@]2(C)[C@H]1[C@@]1(C)C=CC(=O)C(C)(C)[C@@H]1C[C@H]2OC(C)=O"
> 10 µM

Which EC50 value is on record for "COC(=O)[C@@]12OC[C@]34[C@H]([C@@H](O)[C@@H]1O)[C@@]1(C)CC(=O)C(O)=C(C)[C@@H]1C[C@H]3OC(=O)[C@H](OC(=O)CC(C)C)[C@@H]24" ?
0.015 µM

What EC50 value was documented for this compound, "CC(=O)O[C@H]1C(=O)[C@@]2(C)[C@H]([C@H](OC(=O)c3ccccc3)[C@]3(O)C[C@H](OC(=O)[C@H](O)[C@@H](NC(=O)c4ccccc4)c4ccccc4)C(C)=C1C3(C)C)[C@]1(OC(C)=O)CO[C@@H]1C[C@@H]2O" ?
> 10 µM

Suppose we examine the compound "COc1cc([C@@H]2Oc3ccc(-c4cc(=O)c5c(O)cc(O)cc5o4)cc3O[C@H]2CO)ccc1O" ; what EC50 value has been reported?
> 10 µM

Given COC(=O)[C@@]12OC[C@]34[C@H]([C@@H](O)[C@@H]1O)[C@@]1(C)CC(=O)C(O)=C(C)[C@@H]1C[C@H]3OC(=O)[C@H](OC(=O)/C=C(\C)C(C)C)[C@@H]24 [BRUCEANTIN] , state its recorded EC50.
0.002 µM
